Biological target: T1, human MAdCAM (human, UniProt Q13477 19-317, limits assumed)
T1 construct: also called huMAdCAM; human MAdCAM-1
T1 sequence (looked up): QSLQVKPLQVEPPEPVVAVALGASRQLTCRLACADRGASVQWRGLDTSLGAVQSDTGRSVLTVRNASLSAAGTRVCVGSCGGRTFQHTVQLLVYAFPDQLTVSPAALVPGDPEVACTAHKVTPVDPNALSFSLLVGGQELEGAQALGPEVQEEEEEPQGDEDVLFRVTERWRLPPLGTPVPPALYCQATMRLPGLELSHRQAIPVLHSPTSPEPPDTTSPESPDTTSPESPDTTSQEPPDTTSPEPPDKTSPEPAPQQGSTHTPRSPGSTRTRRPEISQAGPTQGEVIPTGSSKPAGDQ
Test: BLI (Octet), binder on anti-human Fc tips
quantity kind: kon (M⁻¹ s⁻¹)
Express it in M⁻¹ s⁻¹; write the number only.

# binder, kon / M⁻¹ s⁻¹
measured = [
    ("MIAB146 (antibody, V domains shown, tested with human Fc; also called MIAB146-001) VH: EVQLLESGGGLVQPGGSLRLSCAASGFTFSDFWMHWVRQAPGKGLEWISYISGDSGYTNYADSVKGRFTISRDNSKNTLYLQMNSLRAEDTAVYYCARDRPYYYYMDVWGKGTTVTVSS VL: DIQMTQSPSSLSASVGDRVTITCRASQSVSSSLAWYQQKPGKAPKLLIYAASSLQSGVPSRFSGSGSGTDFTLTISSLQPEDFATYYCQQYKSYPVTFGQGTKVEIK", 449000),
    ("MIAB178 (antibody, V domains shown, tested with human Fc; also called MIAB178-001) VH: EVQLLESGGGLVQPGGSLRLSCAASGFTFSSYWMHWVRQAPGKGLEWISAISGSSGSTYYADSVKGRFTISRDNSKNTLYLQMNSLRAEDTAVYYCARDRPYYYYMDVWGKGTTVTVSS VL: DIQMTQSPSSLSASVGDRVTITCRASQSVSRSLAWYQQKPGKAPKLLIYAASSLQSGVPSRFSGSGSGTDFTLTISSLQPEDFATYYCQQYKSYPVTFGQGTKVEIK", 372000),
    ("MIAB182 (antibody, V domains shown, tested with human Fc; also called MIAB182-001) VH: EVQLLESGGGLVQPGGSLRLSCAASGFTFSSYWMHWVRQAPGKGLEWVSAISGSGGSTYYADSVKGRFTISRDNSKNTLYLQMNSLRAEDTAVYYCARDRPYYYYMDVWGKGTTVTVSS VL: DIQMTQSPSSLSASVGDRVTITCRASQSISRSLAWYQQKPGKAPKLLIYAASSLQSGVPSRFSGSGSGTDFTLTISSLQPEDFATYYCQQYKSYPVTFGQGTKVEIK", 226000),
]

With those in mind, consider the next binder.
### Prompt Return reported kon. Input binder: MIAB137 (antibody, V domains shown, tested with human Fc) VH: EVQLLESGGGLVQPGGSLRLSCAASGFTFSDFWMHWVRQAPGKGLEWVSAISGSGGSTYYADSVKGRFTISRDNSKNTLYLQMNSLRAEDTAVYYCARDRPYYYYMDVWGKGTTVTVSS VL: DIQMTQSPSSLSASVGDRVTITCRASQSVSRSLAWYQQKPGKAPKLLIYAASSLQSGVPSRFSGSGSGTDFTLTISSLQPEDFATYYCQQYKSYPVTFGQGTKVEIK
### Response 404000
